These data points were gathered from the Human Domainome abundance scans (Beltran et al. 2025).

B1: POU domain, class 3, transcription factor 3, residues 408 to 463; numbered along this chain, P20264 (parent)
chain: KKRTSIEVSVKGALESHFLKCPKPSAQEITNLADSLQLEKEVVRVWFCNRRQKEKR

Variants of: B1
Test Name: abundance fitness (aPCA) (normalised: wild type 0, dead -1); higher = more abundant; growth selection in yeast, the domain comes from the species named
Condition Parameters: Homo sapiens
Parameter: abundance fitness

## Task Determine from records and report abundance fitness for V8H
## Result -0.052

## Task Determine from records and report abundance fitness for A33Y
## Result -0.836
